Hello, the source for this data is patent US6552235B2, in case you need it.

Assay: Liquid-liquid distribution coefficient of cyclohexene at 120° C. and solvent effect index
Format: physicochemical
Conditions: distribution coefficient in solvent-free system/in solvent-containing system
RECORDED METRIC: Solvent effect index
Give bare numbers.

COMPOUND	RECORDED METRIC	MEASURED
CC1=CC(=O)CC(C)(C)C1 [Isophorone]	Solvent effect index	2.19
OCCc1ccccc1 [Phenethyl alcohol]	Solvent effect index	2.24
OCCOc1ccccc1 [Ethylene glycol monophenyl ether, ethylene glycol monophenyl ether]	Solvent effect index	2.46

Kindly consider the entry below.
Given CC1CC(=O)CC(C)(C)C1 (stereo not shown) [3,3,5-Trimethylcyclohexanone] , state its recorded Solvent effect index.
2.14
